- target: human ether-à-go-go-related gene (hERG) potassium channel (human)
- protocol_description: primary screen, population patch clamp on CHO cells stably expressing hERG; higher = less effect of the substance
Hit rate of the full screen: of about 310,000 compounds, about 14,000 (4.5%) showed an effect of 50% or more. The effect is printed as a negative number. This excerpt belongs to a sample that is enriched for strong results.
The label depends only on hERG current change (%, negative = inhibition) at 10uM: true if it is at least -10%, false if it is smaller.

Some solved entries appear below for comparison.
CCOc1ccc(CCNC(=O)/C=C/c2ccco2)cc1OCC: false
CCOC(=O)NC1(C(F)(F)F)NC(=O)N(C2CCCCC2)C1=O (stereo not shown): true

Task item: # check: hERG current change (%, negative = inhibition) at 10uM of O=C(Nc1ccccc1)N1CCN(c2ccc(F)cc2)CC1 is greater than or equal to -10%
Reply: true

Task item: hERG current change (%, negative = inhibition) at 10uM >= -10% for Cc1ccc(OCc2cc(C(=O)N3CCC(C(O)C(C)C)CC3)no2)cc1C (stereo not shown) ?
Reply: false

Task item: Has Cc1ccc(OCCn2c(=O)sc3ccccc32)cc1 a recorded hERG current change (%, negative = inhibition) at 10uM greater than or equal to -10%?
Reply: true

Task item: Is it the case that CCCC(=O)Nc1cccc(C(=O)Nc2ccccc2OCC)c1 has hERG current change (%, negative = inhibition) at 10uM reaching or exceeding -10%?
Reply: false

Task item: For this compound, is measured hERG current change (%, negative = inhibition) at 10uM -10% or higher? O=C(CC1C(=O)NCCN1CC1CCCCC1)NCc1ccccc1Cl (stereo not shown)
Reply: true

* * *

- target: human ether-à-go-go-related gene (hERG) potassium channel (human);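 note: peak tail current of the secondary pulse compared with the same well before compound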
- protocol_description: primary screen, population patch clamp on CHO cells stably expressing hERG; higher = less effect of the substance
In all, about 310,000 compounds went through this assay and about 14,000 (4.5%) showed an effect of 50% or more. The effect is printed as a negative number. The entries come from a sample that favours strong results as a whole.
Parameter: hERG current change (%, negative = inhibition) at 10uM. Scope: all listed entries.
Write down the numeric answer in % and omit the unit.

In the examples that follow, each entry is paired with its recorded hERG current change (%, negative = inhibition) at 10uM.
Cc1c(C(=O)Nc2ccccc2)cnn1-c1ccccc1: -3.03
Cc1ccc(S(=O)(=O)Nn2c(C)ccc2C)cc1: 15.3
Cc1nc(C(C)NC(=O)c2cc(COc3ccc(F)c(F)c3)on2)cs1 (centres unmarked): -11.2
O=C(C[n+]1ccc(/C=N/O)cc1)N(Cc1ccccc1)Cc1ccccc1.[Cl-]: 0.798
Cc1cccc(NC(=O)c2cnn(-c3ccc(F)cc3)c2C2CCNCC2)c1C.Cl: -9.71

Task item: Quick one: give measured hERG current change (%, negative = inhibition) at 10uM for Cc1ccc(CNC(=O)c2ccc(Cn3cc(-c4ccc(C)cc4)nc3-c3ccncc3)cc2)cc1
Reply: 5.94

Task item: Give me measured hERG current change (%, negative = inhibition) at 10uM, please, for this molecule: O=C(OCC1OC(Oc2ccc(O)cc2)C(O)C(O)C1O)c1ccccc1 (centres unmarked)
Reply: 14.5

Task item: Read the entry Br.O=C(CN1C2=NCCN2c2ccccc21)c1ccc(Br)cc1 and write its reported hERG current change (%, negative = inhibition) at 10uM.
Reply: -67.6

Task item: Please supply the value of reported hERG current change (%, negative = inhibition) at 10uM for the item Cl.O=C(CN1C2=NCCN2c2ccccc21)c1ccco1
Reply: -20.7

Task item: Complete the entry with hERG current change (%, negative = inhibition) at 10uM for Cc1cc(C)cc(NC(=O)c2cnn(-c3ccccc3)c2C2CCNCC2)c1.Cl
Reply: -19.7

Task item: Report hERG current change (%, negative = inhibition) at 10uM for COc1ccccc1COn1c(=O)c(-c2ccco2)[n+]([O-])c2ccccc21
Reply: 5.96

Task item: Hello, please tell me recorded hERG current change (%, negative = inhibition) at 10uM for this one: CCOc1ccccc1N(CC(=O)NCCOC)C(=O)CCC(=O)Nc1ccccn1
Reply: 19.6

Task item: Report hERG current change (%, negative = inhibition) at 10uM, nothing else, for this molecule: O=C(NCCc1ccccc1)c1ccc(S(=O)(=O)N2CCCC2)cc1
Reply: -5.37

Task item: Look up and state reported hERG current change (%, negative = inhibition) at 10uM for COC(=O)C(NC(C)=O)(Nc1nc2c(s1)CCCC2)C(F)(F)F (centres unmarked)
Reply: -4.29

Task item: Give the reported hERG current change (%, negative = inhibition) at 10uM for this molecule. O=C(N/N=C/c1ccc2c(c1)OCO2)/C(=C/c1ccc2c(c1)OCO2)NC(=O)c1ccccc1
Reply: -20.7

* * *

- target: human ether-à-go-go-related gene (hERG) potassium channel (human);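 note: peak tail current of the secondary pulse compared with the same well before compound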
- protocol_description: primary screen, population patch clamp on CHO cells stably expressing hERG; higher = less effect of the substance
About 14,000 (4.5%) of roughly 310,000 compounds showed an effect of 50% or more. The effect is printed as a negative number. This is one part of a sample in which strong results are shown more often than they occur.
As shown below, each of these compounds has a reported hERG current change (%, negative = inhibition) at 10uM value.

Task item: Consider the compound Cn1c(/C=C/c2ccccc2[N+](=O)[O-])nc2ccccc2c1=O . State its measured hERG current change (%, negative = inhibition) at 10uM.
Reply: 5%

Task item: Given COc1ccccc1Oc1ccccc1C(=O)O , respond with its hERG current change (%, negative = inhibition) at 10uM.
Reply: 0.941%

Task item: Answer with the recorded hERG current change (%, negative = inhibition) at 10uM of O=C(NC(=S)Nc1ccc2oc(=O)ccc2c1)c1cccc(Cl)c1 only.
Reply: 4.11%

Task item: Return value of hERG current change (%, negative = inhibition) at 10uM for input NNC(=O)c1oc2nc(-c3ccccc3)cc(-c3ccco3)c2c1N , no commentary.
Reply: 0.558%

Task item: Please give the documented hERG current change (%, negative = inhibition) at 10uM of CCCCNC(=O)CCn1nc(-c2ccc(Cl)cc2)ccc1=O
Reply: -23.4%

Task item: For the compound COc1ccc2[nH]c(C)c(CCNC(=S)Nc3cccc(C)c3C)c2c1 , report hERG current change (%, negative = inhibition) at 10uM.
Reply: 15.9%

Task item: State its hERG current change (%, negative = inhibition) at 10uM: O=C(Cn1c(=O)cnc2ccccc21)NNC(=O)c1ccccc1Cl
Reply: 4.84%

Task item: Find the measured hERG current change (%, negative = inhibition) at 10uM of Cc1ccc(SCCSc2ncccn2)cc1 and report it.
Reply: -2.38%

Task item: Specify hERG current change (%, negative = inhibition) at 10uM for Cn1c(Br)nc2c1c(=O)n(Cc1ccccc1)c(=O)n2C and stop.
Reply: -10.2%

Task item: Indicate its recorded hERG current change (%, negative = inhibition) at 10uM; the compound in question is CC(C)CCNC(=O)CCn1nc(-c2ccccc2)ccc1=O
Reply: -46.8%

Task item: Recall and state the measured hERG current change (%, negative = inhibition) at 10uM for CCCc1nnc(SCC(=O)N2CCCC2)n1Cc1ccco1 .
Reply: 1.2%

* * *

Listed below: hERG current change (%, negative = inhibition) at 10uM values for each entry.
- target: human ether-à-go-go-related gene (hERG) potassium channel (human);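 note: peak tail current of the secondary pulse compared with the same well before compound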
- protocol_description: primary screen, population patch clamp on CHO cells stably expressing hERG; higher = less effect of the substance
Hit rate of the full screen: of about 310,000 compounds, about 14,000 (4.5%) showed an effect of 50% or more. Effects have a minus sign here. Many of the other results were omitted from the sample, so strong results are more common in it than they were.
# output: bare number, implied unit %

Record excerpt, results attached:
C=CCNCCOCCOc1ccc(Cl)cc1C(C)(C)C.O=C(O)C(=O)O: 11.2
COc1ccc(-c2cc(C(=O)NCc3ccco3)c3ccccc3n2)cc1: -5.84

Task item: Supply reported hERG current change (%, negative = inhibition) at 10uM belonging to this molecule: COC(=O)c1ccc(C)c(NC(=O)C(CCSC)NC(=O)c2cc(OC)c(OC)c(OC)c2)c1 (stereo not shown)
Reply: 13.6

Task item: Return hERG current change (%, negative = inhibition) at 10uM for the following molecule: C/C(=N\Nc1ncc(Cl)cc1Cl)c1ccc(C#N)cc1
Reply: -4.88

* * *

- target: human ether-à-go-go-related gene (hERG) potassium channel (human, UniProt Q12809);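 note: peak tail current of the secondary pulse compared with the same well before compound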
- Sequence (Q12809 whole entry, looked up): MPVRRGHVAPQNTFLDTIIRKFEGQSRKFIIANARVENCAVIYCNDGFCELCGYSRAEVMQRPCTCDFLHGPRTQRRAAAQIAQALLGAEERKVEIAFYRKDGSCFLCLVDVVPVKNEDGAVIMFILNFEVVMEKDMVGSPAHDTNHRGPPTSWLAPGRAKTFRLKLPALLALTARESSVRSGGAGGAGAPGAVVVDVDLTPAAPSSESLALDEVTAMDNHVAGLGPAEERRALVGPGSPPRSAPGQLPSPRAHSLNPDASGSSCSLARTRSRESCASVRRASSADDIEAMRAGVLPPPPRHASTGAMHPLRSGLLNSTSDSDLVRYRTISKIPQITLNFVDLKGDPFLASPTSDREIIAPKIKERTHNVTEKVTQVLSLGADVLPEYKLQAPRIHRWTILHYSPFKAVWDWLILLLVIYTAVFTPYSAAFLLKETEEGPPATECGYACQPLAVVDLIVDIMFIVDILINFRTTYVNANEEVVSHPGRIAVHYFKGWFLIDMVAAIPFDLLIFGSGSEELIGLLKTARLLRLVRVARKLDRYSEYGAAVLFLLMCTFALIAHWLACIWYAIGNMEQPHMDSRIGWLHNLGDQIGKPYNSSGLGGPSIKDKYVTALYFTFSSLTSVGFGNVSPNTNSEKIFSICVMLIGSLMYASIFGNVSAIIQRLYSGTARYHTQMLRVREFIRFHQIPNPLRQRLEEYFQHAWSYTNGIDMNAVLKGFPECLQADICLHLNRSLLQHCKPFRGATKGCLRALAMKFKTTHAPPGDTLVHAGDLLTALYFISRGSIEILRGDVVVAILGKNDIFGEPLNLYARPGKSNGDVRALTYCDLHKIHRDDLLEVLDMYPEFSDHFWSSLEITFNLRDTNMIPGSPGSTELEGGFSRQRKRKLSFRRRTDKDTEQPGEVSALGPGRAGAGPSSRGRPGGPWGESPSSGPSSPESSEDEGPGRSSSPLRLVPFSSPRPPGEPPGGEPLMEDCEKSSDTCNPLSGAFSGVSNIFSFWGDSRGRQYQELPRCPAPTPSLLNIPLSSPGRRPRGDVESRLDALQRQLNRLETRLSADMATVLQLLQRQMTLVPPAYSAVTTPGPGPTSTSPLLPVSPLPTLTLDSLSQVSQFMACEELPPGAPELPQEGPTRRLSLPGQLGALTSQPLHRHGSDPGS
- protocol_description: primary screen, population patch clamp on CHO cells stably expressing hERG; higher = less effect of the substance
Screen size: about 310,000 compounds; about 14,000 (4.5%) showed an effect of 50% or more. Effects have a minus sign here. This is one part of a sample in which strong results are shown more often than they occur.
readout_type: hERG current change (%, negative = inhibition) at 10uM (%)
# unit: % | format: bare number

Consider the worked cases shown below.
CCn1cc(C(=O)N2CCN(C(=O)c3ccco3)CC2)c2cc(OC)c(OC)cc2c1=O: 7.72
Cc1cc(/C=C(\C#N)C(=O)NCc2ccco2)c(C)n1-c1cccnc1: -23.2
c1cncc(C2Nc3ccccc3-c3nc4ccccc4n32)c1 (stereo not shown): -5.58
CSCCC(NS(=O)(=O)c1ccc(C)cc1)C(=O)Nc1ccc(C)cn1 (stereo not shown): 2.68
NC(=O)CSC1=Nc2ccccc2C2=NC(c3ccccc3)C(=O)N12 (stereo not shown): 1.61
COc1ccc(CNC(=O)CCOc2ccc(C(C)(C)C)cc2)cc1: 8.47
NC(=O)/C(=C/c1ccco1)NC(=O)/C=C/c1ccccc1: -5.56
CCN(CC)C(=O)COC(=O)c1ccc(O)cc1: 7.43
CCOc1ccc(S(=O)(=O)NNC(=S)Nc2ccc(Br)cc2)cc1: 5.35

Task item: Look up human ether-à-go-go-related gene (hERG) potassium channel (human, UniProt Q12809) data: hERG current change (%, negative = inhibition) at 10uM of CCC(C(=O)OC(C)C(=O)Nc1ccc(Cl)cn1)c1ccccc1 (stereo not shown) , then report it.
Reply: 0.842
